Here the recorded Activity is given for each entry.
- EXPERIMENT: Inhibition of glucose-induced insulin secretion in rat pancreatic islets assessed as residual insulin release at 50 uM
- Format: functional, Pancreatic islet
Report the value in % with no unit label.

Take a look at these entries with their results.
>  <SMI>
CCNC1=NS(=O)(=O)c2cccc(Cl)c2N1

>  <Activity / %>
80.4

$$$$
>  <SMI>
CCCNC1=NS(=O)(=O)c2ccc(Cl)cc2N1

>  <Activity / %>
8.74

$$$$

Then this compound:
Entry CC(C)NC1=NS(=O)(=O)c2cc(Cl)c(Cl)cc2N1 ; Activity = 4.96

---

- SYSTEM_UNDER_TEST: Sulfonylurea receptor 1, Kir6.2 (Homo sapiens, UniProt Q09428+Q14654)
- Sequence (Q14654 whole entry): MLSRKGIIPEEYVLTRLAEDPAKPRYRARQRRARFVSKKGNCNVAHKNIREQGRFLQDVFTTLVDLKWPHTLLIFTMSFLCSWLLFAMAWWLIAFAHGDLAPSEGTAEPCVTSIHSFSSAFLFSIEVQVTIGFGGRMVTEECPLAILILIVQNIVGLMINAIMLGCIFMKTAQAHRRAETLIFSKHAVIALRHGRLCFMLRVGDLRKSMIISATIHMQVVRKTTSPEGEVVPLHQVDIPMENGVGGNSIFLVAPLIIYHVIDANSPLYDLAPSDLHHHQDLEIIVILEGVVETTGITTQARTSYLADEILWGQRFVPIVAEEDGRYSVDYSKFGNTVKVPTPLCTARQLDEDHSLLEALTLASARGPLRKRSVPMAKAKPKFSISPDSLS
- Sequence (Q09428 whole entry): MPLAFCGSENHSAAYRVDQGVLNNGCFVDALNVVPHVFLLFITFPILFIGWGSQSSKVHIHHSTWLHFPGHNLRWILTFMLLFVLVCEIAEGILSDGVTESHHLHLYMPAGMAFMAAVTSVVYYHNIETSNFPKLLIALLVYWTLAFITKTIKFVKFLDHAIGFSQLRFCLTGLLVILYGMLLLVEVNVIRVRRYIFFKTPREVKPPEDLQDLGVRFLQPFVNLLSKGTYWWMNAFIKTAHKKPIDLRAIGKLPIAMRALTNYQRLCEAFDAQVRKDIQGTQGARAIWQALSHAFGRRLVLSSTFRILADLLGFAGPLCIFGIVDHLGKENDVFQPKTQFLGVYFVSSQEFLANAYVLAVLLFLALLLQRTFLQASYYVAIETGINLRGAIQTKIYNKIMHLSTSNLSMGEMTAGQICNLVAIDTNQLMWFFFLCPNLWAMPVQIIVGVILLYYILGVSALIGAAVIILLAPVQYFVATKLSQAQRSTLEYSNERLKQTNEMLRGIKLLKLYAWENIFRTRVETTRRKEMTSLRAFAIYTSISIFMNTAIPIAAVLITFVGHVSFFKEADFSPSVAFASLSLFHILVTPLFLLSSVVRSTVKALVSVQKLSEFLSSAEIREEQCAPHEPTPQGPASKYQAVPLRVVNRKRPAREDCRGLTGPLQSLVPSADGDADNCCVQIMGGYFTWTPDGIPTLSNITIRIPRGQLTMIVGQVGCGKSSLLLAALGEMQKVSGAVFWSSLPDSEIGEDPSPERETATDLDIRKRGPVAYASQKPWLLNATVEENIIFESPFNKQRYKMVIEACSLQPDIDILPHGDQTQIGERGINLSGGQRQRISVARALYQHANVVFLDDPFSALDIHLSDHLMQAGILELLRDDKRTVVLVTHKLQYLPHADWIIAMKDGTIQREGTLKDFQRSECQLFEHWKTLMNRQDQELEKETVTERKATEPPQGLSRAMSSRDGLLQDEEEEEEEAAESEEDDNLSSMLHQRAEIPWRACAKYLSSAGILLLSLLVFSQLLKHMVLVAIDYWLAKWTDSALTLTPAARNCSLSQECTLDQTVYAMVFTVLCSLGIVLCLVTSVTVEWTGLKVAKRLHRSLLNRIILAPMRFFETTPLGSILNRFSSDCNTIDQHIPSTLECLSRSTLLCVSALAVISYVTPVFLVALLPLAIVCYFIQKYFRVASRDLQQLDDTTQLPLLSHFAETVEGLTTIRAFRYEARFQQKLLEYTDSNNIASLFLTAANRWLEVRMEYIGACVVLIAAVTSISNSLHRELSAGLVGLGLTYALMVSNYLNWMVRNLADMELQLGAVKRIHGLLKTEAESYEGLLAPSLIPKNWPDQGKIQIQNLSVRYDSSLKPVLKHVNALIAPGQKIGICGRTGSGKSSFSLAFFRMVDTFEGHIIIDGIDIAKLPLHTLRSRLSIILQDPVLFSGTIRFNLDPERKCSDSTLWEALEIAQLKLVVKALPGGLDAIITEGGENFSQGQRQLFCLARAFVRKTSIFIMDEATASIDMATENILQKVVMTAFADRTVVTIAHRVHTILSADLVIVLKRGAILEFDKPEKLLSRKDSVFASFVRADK
- EXPERIMENT: Activation of human recombinant SUR1/Kir6.2 channel expressed in HEK293 cells assessed as increase in ionic current by whole cell patch clamp assay
OBSERVABLE: EC50 (nM)
Report the value in nM with no unit label.

Entry O=S1(=O)NC(NC2CCC2)=Nc2cc(Cl)ccc21 ; EC50 = 80
